B1: CLCN6 (parent)
chain: MAGCRGSLCCCCRWCCCCGERETR

variants of: B1; experiment: protein stability index of a GFP-peptide fusion (GPS, HEK-293T) (PSI 1-6); higher = more stable; conditions: c terminus: a fixed tail appended;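 further: lentivirally expressed fusions sorted by FACS into six bins by GFP to DsRed ratio, PSI derived from sequencing read proportions per bin multiplied by bin number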
Measured Attribute: protein stability index
Give bare numbers.

{"Var": "C11Q", "Numeric Result": 1.9}

Hi, could you look up protein stability index for each item in my list?
1. C18K
2. R21W
3. W14F

1: 1.85; 2: 1.52; 3: 1.95
